Attribution: ChEMBL document CHEMBL1201862

Let's go through some AC50 measurements on Cytochrome P450 1A2 (Homo sapiens, UniProt P05177) together.
Sequence (P05177 whole entry): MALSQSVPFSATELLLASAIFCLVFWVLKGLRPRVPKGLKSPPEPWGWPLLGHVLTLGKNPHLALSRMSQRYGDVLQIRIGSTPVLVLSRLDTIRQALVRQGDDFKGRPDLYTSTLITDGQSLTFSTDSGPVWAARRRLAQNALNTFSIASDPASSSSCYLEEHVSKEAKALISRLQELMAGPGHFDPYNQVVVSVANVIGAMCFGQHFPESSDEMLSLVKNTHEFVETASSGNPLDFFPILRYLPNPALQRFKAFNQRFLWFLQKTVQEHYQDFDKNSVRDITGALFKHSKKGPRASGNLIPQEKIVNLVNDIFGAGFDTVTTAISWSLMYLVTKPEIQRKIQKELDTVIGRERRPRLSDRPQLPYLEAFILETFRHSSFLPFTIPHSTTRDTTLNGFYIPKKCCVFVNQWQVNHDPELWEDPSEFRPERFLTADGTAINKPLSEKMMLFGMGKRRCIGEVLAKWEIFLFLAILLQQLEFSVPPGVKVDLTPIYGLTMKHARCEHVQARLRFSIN

Query :: // AC50 lookup, key: COc1nccc(-c2c(-c3ccc(F)cc3)ncn2C2CCC(O)CC2)n1 (stereo unspecified)
Result :: 31.6 µM (inconclusive)

Query :: What do you have for NS(=O)(=O)c1ccc(NCc2cnc3ccccc3c2)cc1 ?
Result :: 1.58 µM (inconclusive)

Query :: Same question for O=C(O)c1ccccc1NCn1c(=S)sc2ccccc21 please.
Result :: 0.501 µM (inconclusive)

Query :: Please give the result for O=C1NC(=O)C(c2ccccc2[N+](=O)[O-])=C1Nc1ccc(O)c(Cl)c1 too.
Result :: 31.6 µM (inconclusive)

Query :: What about COc1ccc(C(=O)N/N=C(\C)Cn2nc([N+](=O)[O-])cc2C)cc1 ?
Result :: 20 µM (inconclusive)

Query :: Now consider Cc1cc(C)cc(NC(=O)CCc2nc3ccccc3[nH]2)c1 and answer again.
Result :: 3.16 µM (inconclusive)

Query :: // same read-out, input: N[C@H](C(=O)O)c1cc(O)cc(O)c1
Result :: 31.6 µM (inconclusive)

Query :: Now consider CN1[C@@H]2CC[C@H]1CC(OC(=O)c1cc(Cl)cc(Cl)c1)C2 (stereo partly specified) .
Result :: 31.6 µM (inconclusive)

Query :: Follow-up entry: Cc1ccc(C)c(S(=O)(=O)NC(C)C(=O)Nc2ccc(-c3nc4ccccc4s3)cc2)c1 (stereo unspecified)
Result :: 15.8 µM (inconclusive)

Query :: Moving on to the next compound: CCOC(=O)C1(S(=O)(=O)c2ccc(Cl)cc2)CCN(Cc2ccc(Cl)cc2)CC1
Result :: 31.6 µM (inconclusive)

Query :: Now the same for Cc1ccccc1OCCN=C(S)Nc1ccccc1
Result :: 3.16 µM (inconclusive)

* * *

Calls of active or inactive are those of the source.
Assay system Estrogen receptor (Homo sapiens); read-out recorded as IC50.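 Note: potency for inhibiting coactivator peptide recruitment to the receptor.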

Query :: Form: Entry = CCCc1cc2c(=O)c(-c3ccc4c(c3)OCCO4)coc2cc1OC(=O)c1ccco1 | System = Estrogen receptor (Homo sapiens) | IC50 = ____;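 note: potency for inhibiting coactivator peptide recruitment to the receptor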
Result :: > 50 µM (not active)

Query :: And CCCCC1C(=O)N(c2ccccc2)N(c2ccccc2)C1=O ?
Result :: > 50 µM (not active)

Query :: Param item: CCOc1ccc(NC2=NC(=O)S/C2=C\c2ccc(OC)cc2)cc1
Result :: 18.8 µM (active)

Query :: Now the molecule COCCOC(=O)c1[nH]c2c(c1C)C(=O)CC(c1ccco1)C2 (centres undefined)
Result :: 19.5 µM (active)

* * *

I'd be grateful if you could share measured IC50 for these entries.
- SYSTEM NAME: Glucose-6-phosphate 1-dehydrogenase (Homo sapiens, UniProt P11413)
- Sequence (P11413 whole entry): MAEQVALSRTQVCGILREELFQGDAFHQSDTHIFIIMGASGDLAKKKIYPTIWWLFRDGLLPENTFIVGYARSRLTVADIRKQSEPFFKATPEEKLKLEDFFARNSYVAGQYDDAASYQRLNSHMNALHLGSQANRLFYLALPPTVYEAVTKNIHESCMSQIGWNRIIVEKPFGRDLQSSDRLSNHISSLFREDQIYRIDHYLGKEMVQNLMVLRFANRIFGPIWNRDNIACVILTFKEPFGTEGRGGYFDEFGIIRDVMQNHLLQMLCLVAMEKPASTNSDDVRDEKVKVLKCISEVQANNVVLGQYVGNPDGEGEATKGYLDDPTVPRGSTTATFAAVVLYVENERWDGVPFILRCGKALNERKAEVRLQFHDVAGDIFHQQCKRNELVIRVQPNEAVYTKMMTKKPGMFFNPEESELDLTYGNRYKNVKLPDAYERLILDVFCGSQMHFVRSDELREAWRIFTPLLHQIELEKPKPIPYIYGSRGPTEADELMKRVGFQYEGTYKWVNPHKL
- METHOD NOTES: human G6PD enzyme inhibitors, dose response, selectivity assay for P. falciparum G6PD inhibitor project, biochemical, fluorescence (AID 504792)
- Assay type: functional
Calls of active or inactive are those of the source.

Query :: Given the compound Cc1ccc(S(=O)(=O)SCCCSS(=O)(=O)c2ccc(C)cc2)cc1 , what is its reported IC50?
Result :: 26.7 µM (inactive)

Query :: Now consider COC(=O)CCC(=O)OC1(C)C(=O)C2=CN(C3CC3)C(c3ccc(OC)cc3)=CC2=C(Br)C1=O (centres undefined) .
Result :: 31.1 µM (inactive)

Query :: Please give the result for COC(=O)CCC(=O)OC1(C)C(=O)C2=CN(c3ccccc3)C(c3ccc(OC)cc3)=CC2=C(Br)C1=O (centres undefined) too.
Result :: 42.1 µM (inactive)

Query :: Now this one: CCC(C)N(CCNC(=O)c1ccc2c(c1)NC(=O)c1ccccc1S2)C1CCCCC1 (centres undefined)
Result :: > 80 µM (inactive)

* * *

- METHOD NOTES: cytotoxicity toward DRD oncogenic fibroblasts, dose response, cell-based, non-viral oncogenic, luminescence (AID 1934)
- Type: functional
- CONDITION: Homo sapiens
Activity calls are given as the source filed them.
PROPERTY NAME: EC50

Query :: # query: EC50 of entry CCCS(=O)(=O)c1c(S(=O)(=O)CCC)c2c(C)cccn2c1C(=O)N/N=C/c1cc(O)cc(O)c1
Result :: 27 µM (active)

Query :: Consider next the molecule CCN(CC)CCCNC(=O)c1cc(-c2ccccc2)c(N2CCCCC2)s1 in the same way.
Result :: 10.1 µM (active)

Query :: Next molecule up: C(=N\Nc1nncc2ccccc12)/c1ccccn1
Result :: 5.08 µM (inconclusive)

Query :: And then COc1cc([C@@H]2c3cc4c(cc3[C@@H](NC3CCN(Cc5ccccc5)CC3)[C@H]3COC(=O)[C@H]23)OCO4)cc(OC)c1O , what is it?
Result :: 2.38 µM (active)

* * *

- SYSTEM NAME: Zinc finger protein mex-5 (Caenorhabditis elegans, UniProt Q9XUB2)
- Sequence (Q9XUB2 whole entry): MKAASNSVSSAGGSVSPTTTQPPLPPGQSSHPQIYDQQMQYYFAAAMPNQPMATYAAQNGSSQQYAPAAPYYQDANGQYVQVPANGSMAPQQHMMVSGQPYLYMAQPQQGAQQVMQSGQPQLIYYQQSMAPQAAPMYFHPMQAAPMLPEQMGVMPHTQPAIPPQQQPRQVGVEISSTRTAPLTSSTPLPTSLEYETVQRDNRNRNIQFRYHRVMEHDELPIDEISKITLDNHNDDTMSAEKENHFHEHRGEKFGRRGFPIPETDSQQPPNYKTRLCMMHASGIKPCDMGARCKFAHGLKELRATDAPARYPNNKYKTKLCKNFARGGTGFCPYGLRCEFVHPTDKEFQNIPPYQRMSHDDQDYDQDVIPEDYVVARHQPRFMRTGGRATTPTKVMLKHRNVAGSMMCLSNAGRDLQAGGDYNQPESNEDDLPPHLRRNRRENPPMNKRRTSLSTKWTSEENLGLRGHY
- METHOD NOTES: MEX-5/TCR-2 RNA interaction inhibitors, dose response, biochemical, C. elegans, fluorescence polarization (AID 1960)
The source made the active and inactive calls.
PROPERTY NAME: EC50

Query :: GET /values?readout=EC50&item= Cc1ccc(S(=O)(=O)c2cc3c(=O)n4ccccc4nc3n(CCc3ccccc3)c2=N)cc1
Result :: 3.75 µM (inconclusive)

Query :: What do you get for O=C(O)c1cc(-c2ccc(/C=N/Nc3ccc([N+](=O)[O-])cn3)o2)ccc1Cl ?
Result :: 6.29 µM (active)

Query :: What do we get for CC(C)(C)OC(=O)NC(Cc1ccccc1)C(=O)N1CCC(C(=O)NCC(=O)Nc2ccc(F)cc2)CC1 (configuration not stated) ?
Result :: 2.04 µM (inconclusive)

Query :: Now consider CCN1C=CC2=C(C#N)C(N)C(C#N)(C#N)C(c3ccccc3C(F)(F)F)C2C1 (configuration not stated) .
Result :: > 300 µM (not active)

Query :: Would you mind doing Cc1ccccc1CSCCN=C(S)Nc1ccccc1 as well?
Result :: > 300 µM (not active)

Query :: Record: Cc1ccc2[nH]c(C)c(/C=C3/C(=N)N4N=C(CC(=O)N5CCOCC5)SC4=NC3=O)c2c1
Result :: > 300 µM (inconclusive)

Query :: Next record, please: COc1ccc(/C=c2\sc3nc(-c4ccccc4OC)nn3c2=O)c(OC)c1
Result :: 31.4 µM (active)

* * *

- SYSTEM NAME: Galanin receptor type 3 (Homo sapiens, UniProt O60755)
- Sequence (O60755 whole entry): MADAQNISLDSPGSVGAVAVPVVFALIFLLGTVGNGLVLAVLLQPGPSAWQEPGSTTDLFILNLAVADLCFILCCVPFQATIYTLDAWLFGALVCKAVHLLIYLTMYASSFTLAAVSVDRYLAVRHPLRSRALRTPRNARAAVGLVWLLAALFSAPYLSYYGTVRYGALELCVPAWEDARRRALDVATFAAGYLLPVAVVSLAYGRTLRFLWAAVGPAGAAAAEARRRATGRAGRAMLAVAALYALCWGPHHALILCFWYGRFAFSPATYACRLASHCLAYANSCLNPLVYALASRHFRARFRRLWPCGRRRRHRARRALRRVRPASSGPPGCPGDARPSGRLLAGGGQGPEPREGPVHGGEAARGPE
- METHOD NOTES: Fluorescence-based cell-based primary high throughput dose response assay to identify antagonists of the Galanin Receptor 3 (GalR3).
- Type: functional
Calls of active or inactive are those of the source.
Your response should consist of one outcome taken from true for active, false for inactive

Query :: How did this test come out for COc1ccc(C2=NN(c3nc(C(=O)O)cs3)C(O)(C(F)(F)F)C2)c(OC)c1 (centres undefined) ?
Result :: false

Query :: Again, but for CC(=O)c1ccc(N2CCN(C(S)=Nc3ccc(Oc4ccccc4)cc3)CC2)cc1
Result :: true

Query :: Try this compound too: COCCn1c(C)cc(C(=O)COc2nc3ccccc3nc2C)c1C
Result :: true

Query :: Try this compound next: O=C(Nc1nc(-c2ccc(Cl)cc2Cl)cs1)c1ccc(OCC2CCCO2)cc1 (centres undefined)
Result :: true
